This collection of values is drawn from paper doi:10.1101/158956v2.

Below, each entry is listed alongside its reported pKi.
Target: UniProt:P0AC33
Sequence (P0AC33 2-548): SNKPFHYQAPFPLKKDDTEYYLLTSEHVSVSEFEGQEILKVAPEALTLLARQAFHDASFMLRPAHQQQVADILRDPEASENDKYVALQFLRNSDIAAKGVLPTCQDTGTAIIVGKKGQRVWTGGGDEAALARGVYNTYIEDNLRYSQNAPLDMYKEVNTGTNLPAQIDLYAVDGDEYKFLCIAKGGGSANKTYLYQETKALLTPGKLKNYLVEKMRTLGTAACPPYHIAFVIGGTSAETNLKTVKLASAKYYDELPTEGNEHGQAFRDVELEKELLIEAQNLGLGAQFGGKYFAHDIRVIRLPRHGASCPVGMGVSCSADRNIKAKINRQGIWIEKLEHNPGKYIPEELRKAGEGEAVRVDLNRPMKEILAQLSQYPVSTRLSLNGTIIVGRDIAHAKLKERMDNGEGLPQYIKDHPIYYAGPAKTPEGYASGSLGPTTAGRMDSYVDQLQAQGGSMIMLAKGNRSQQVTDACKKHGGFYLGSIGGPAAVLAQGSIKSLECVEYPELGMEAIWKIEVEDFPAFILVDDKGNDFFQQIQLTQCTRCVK
A value of pKi is the negative decimal logarithm of a concentration given in moles per litre.

O=C(O)CC(S)C(=O)O (racemic): 5.54

# input for lookup
Req: Tell me the measured pKi of O=C(O)C(O)C(O)C(=O)O (stereo not drawn) [meso-tartrate] , please.
Resp: 3.20

====

Molecular target: PfFHΔ40 (PfFΔ40) (Plasmodium falciparum, UniProt Q8I2N6)
Test: spectrophotometric initial velocity
Type: biochemical
Quantity: pKi
A value of pKi is the negative decimal logarithm of a concentration given in moles per litre.

Req: Tell me the measured pKi of O=C(O)C(O)C(O)C(=O)O (stereo not drawn) [meso-tartrate] , please.
Resp: 3.94
